# Tested on: Ba/F3 cells HER2 WT
# method_description: Ba/F3 proliferation assay, HER2 WT
# Assay type: cell-based
# measurement_parameters: Mus musculus, BaF3; 72 h, CellTiter-Glo
measurement_label: GI50 (nM)

{"columns": ["structure", "measured_number"],
 "data": [
  ["C=CC(=O)N1CCN(c2ncc3ncnc(Nc4ccc(Oc5ccn6ncnc6c5)c(C)c4)c3n2)[C@H](C)C1", 4]
]}

(P) C=CC(=O)N1CCN(c2ncc3ncnc(Nc4ccc(Oc5ccn6ncnc6c5)c(C)c4)c3n2)C[C@@H]1C
(Q) C=CC(=O)N1CCN(c2ncc3ncnc(Nc4cc(F)c(Oc5ccn6ncnc6c5)c(Cl)c4)c3n2)CC1
Problem: Return label of the item with the larger GI50. Candidates: P , Q . # reply format: chosen label
Solution: P
(P: 4 nM, Q: 2 nM)

###

# target_system: HER2 YVMA (Homo sapiens, UniProt P04626, INS775YVMA)
# Construct: expressed in transfected cells; host or cells: human HEK cells, retroviral transduction, doxycycline-inducible expression
# Sequence (P04626 with tags, fused parts or gaps INS775YVMA): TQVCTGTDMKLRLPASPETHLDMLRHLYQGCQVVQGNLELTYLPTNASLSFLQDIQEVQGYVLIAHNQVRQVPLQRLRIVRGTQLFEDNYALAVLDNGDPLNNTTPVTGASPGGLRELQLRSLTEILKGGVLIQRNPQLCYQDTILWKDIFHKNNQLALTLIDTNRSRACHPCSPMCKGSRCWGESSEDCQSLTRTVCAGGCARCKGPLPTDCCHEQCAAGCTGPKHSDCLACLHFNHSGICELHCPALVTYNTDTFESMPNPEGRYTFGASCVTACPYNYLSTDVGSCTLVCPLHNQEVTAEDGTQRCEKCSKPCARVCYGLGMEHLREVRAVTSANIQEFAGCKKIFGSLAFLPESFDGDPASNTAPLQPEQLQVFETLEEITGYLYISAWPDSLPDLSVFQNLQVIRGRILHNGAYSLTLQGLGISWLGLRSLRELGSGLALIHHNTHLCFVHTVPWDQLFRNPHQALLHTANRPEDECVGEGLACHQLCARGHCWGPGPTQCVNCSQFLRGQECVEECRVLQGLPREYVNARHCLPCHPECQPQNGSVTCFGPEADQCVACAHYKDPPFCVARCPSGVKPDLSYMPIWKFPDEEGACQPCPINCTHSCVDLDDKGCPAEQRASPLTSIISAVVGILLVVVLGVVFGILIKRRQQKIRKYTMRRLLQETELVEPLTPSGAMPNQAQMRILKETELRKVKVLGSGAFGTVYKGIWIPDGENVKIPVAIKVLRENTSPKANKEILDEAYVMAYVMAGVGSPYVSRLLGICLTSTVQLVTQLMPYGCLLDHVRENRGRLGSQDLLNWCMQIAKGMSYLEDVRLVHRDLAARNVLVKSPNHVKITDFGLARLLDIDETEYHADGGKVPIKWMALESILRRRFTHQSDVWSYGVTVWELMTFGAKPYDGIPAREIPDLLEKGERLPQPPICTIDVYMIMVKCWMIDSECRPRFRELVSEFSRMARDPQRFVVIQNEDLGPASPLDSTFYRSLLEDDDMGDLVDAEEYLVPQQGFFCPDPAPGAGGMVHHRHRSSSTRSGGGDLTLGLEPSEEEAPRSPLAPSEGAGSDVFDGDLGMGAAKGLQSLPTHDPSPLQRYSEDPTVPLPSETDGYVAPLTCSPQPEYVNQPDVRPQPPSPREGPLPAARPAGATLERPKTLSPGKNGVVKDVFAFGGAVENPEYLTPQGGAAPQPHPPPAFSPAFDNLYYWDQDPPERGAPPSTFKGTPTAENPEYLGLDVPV
# method_description: pHER2 (ERBB2) YVMA assay (AlphaScreen Surefire, HEK cells)
# Format: cell-based
# measurement_parameters: HEK cells expressing HER2 YVMA, phosphorylation at Tyr1221/1222, 4 h
pIC50: −log10 of the molar value.
measurement_label: pIC50

{"columns": ["compound", "pIC50"],
 "data": [
  ["C=CC(=O)N1CCN(c2ncc3ncnc(Nc4ccc(Oc5ccn6ncnc6c5)c(C)c4)c3n2)C[C@H]1C [Example I-6]", 8.22],
  ["C=CC(=O)N1CCN(c2ncc3ncnc(Nc4ccc(Oc5ccn6ncnc6c5)c(C)c4)c3n2)[C@H](C)C1 [Example I-7]", 8.15],
  ["C=CC(=O)N1CCN(c2ncc3ncnc(Nc4ccc(Oc5ccn6ncnc6c5)c(C)c4)c3n2)[C@@H](C)C1 [Example I-8]", 8.22],
  ["C=CC(=O)N1CCN(c2ncc3ncnc(Nc4cc(Cl)c(Oc5ccn6ncnc6c5)c(Cl)c4)c3n2)CC1 [Example I-3]", 8.00],
  ["C=CC(=O)N1CCN(c2ncc3ncnc(Nc4ccc(Oc5ccn6ncnc6c5)c(Cl)c4)c3n2)CC1 [Example I-2]", 8.70]
]}

(P) C=CC(=O)N1CCN(c2ncc3ncnc(Nc4ccc(Oc5ccn6ncnc6c5)c(C)c4)c3n2)CC1 [Example I-1]
(Q) C=CC(=O)N1CCN(c2ncc3ncnc(Nc4ccc(Oc5ccn6ncnc6c5)c(C)c4)c3n2)C[C@@H]1C [Example I-5]
(R) C=CC(=O)N1CCN(c2ncc3ncnc(Nc4cc(F)c(Oc5ccn6ncnc6c5)c(Cl)c4)c3n2)CC1 [Example I-4]
Problem: Provide the items ranked by increasing pIC50. List the labels, following the order given in the request.
Solution: R, Q, P

###

# Tested on: Ba/F3 cells HER2 mutants (YVMA)
# method_description: Ba/F3 proliferation assay, HER2 YVMA
# Type: cell-based
# measurement_parameters: Mus musculus, BaF3; 72 h, CellTiter-Glo
measurement_label: GI50 (nM)

Answered examples (5):
{"columns": ["compound", "measurement_label", "measured_number"],
 "data": [
  ["C=CC(=O)N1CCN(c2ncc3ncnc(Nc4ccc(Oc5ccn6ncnc6c5)c(C)c4)c3n2)C[C@@H]1C [Example I-5]", "GI50", 60],
  ["C=CC(=O)N1CCN(c2ncc3ncnc(Nc4ccc(Oc5ccn6ncnc6c5)c(C)c4)c3n2)CC1 [Example I-1]", "GI50", 9],
  ["C=CC(=O)N1CCN(c2ncc3ncnc(Nc4cc(F)c(Oc5ccn6ncnc6c5)c(Cl)c4)c3n2)CC1 [Example I-4]", "GI50", 20],
  ["C=CC(=O)N1CCN(c2ncc3ncnc(Nc4ccc(Oc5ccn6ncnc6c5)c(C)c4)c3n2)[C@H](C)C1 [Example I-7]", "GI50", 29],
  ["C=CC(=O)N1CCN(c2ncc3ncnc(Nc4cc(Cl)c(Oc5ccn6ncnc6c5)c(Cl)c4)c3n2)CC1 [Example I-3]", "GI50", 11]
]}

(1) C=CC(=O)N1CCN(c2ncc3ncnc(Nc4ccc(Oc5ccn6ncnc6c5)c(C)c4)c3n2)C[C@H]1C [Example I-6]
(2) C=CC(=O)N1CCN(c2ncc3ncnc(Nc4ccc(Oc5ccn6ncnc6c5)c(C)c4)c3n2)[C@@H](C)C1 [Example I-8]
Problem: // returns 1 or 2 , whichever has the lower GI50 Use the label to indicate which entry you chose.
Solution: 1

###

# target_system: EGFR wild type (WT) (Homo sapiens)
# Construct: expressed in transfected cells; host or cells: human HEK cells (ATCC CRL-1573), retroviral transduction
# Sequence (P00533 25-1210): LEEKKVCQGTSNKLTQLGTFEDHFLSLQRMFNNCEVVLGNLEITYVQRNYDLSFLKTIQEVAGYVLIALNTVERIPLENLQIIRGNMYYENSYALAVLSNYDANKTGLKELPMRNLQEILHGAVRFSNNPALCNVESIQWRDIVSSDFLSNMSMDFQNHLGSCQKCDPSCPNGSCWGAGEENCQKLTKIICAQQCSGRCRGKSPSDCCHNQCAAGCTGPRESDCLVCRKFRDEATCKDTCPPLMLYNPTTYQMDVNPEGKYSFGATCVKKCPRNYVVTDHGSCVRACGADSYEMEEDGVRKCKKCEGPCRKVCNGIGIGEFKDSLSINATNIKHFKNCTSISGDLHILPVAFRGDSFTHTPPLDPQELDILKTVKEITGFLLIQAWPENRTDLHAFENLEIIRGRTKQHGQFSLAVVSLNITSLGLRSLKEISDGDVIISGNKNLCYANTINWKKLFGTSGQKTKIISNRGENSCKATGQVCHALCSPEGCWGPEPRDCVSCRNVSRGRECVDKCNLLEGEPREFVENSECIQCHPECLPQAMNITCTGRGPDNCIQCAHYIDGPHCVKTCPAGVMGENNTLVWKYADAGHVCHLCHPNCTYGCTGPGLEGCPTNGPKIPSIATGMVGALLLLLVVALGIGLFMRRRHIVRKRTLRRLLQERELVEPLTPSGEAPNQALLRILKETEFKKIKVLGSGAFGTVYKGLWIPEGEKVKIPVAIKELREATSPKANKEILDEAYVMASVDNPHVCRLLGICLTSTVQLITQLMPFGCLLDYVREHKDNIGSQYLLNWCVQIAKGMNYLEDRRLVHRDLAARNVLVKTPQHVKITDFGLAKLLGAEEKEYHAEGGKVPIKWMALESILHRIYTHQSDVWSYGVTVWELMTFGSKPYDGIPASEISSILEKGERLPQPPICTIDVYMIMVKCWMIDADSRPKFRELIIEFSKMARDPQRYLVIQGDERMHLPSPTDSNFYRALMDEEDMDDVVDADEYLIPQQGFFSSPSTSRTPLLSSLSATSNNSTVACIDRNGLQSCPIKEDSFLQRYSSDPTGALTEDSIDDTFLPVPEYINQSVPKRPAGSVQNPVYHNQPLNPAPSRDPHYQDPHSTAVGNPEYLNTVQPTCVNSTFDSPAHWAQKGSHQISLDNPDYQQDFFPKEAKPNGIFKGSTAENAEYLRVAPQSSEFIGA
# method_description: pEGFR assay (AlphaScreen Surefire, HEK cells)
# Assay type: cell-based
# measurement_parameters: HEK cells expressing EGFR WT, phosphorylation at Tyr1068, 4 h
measurement_label: IC50 (nM)

{"columns": ["compound", "IC50 [nM]"],
 "data": [
  ["C=CC(=O)N1CCN(c2ncc3ncnc(Nc4ccc(Oc5ccn6ncnc6c5)c(Cl)c4)c3n2)CC1 [Example I-2]", 62],
  ["C=CC(=O)N1CCN(c2ncc3ncnc(Nc4ccc(Oc5ccn6ncnc6c5)c(C)c4)c3n2)[C@@H](C)C1 [Example I-8]", 577],
  ["C=CC(=O)N1CCN(c2ncc3ncnc(Nc4cc(F)c(Oc5ccn6ncnc6c5)c(Cl)c4)c3n2)CC1 [Example I-4]", 524]
]}

(1) C=CC(=O)N1CCN(c2ncc3ncnc(Nc4ccc(Oc5ccn6ncnc6c5)c(C)c4)c3n2)C[C@@H]1C [Example I-5]
(2) C=CC(=O)N1CCN(c2ncc3ncnc(Nc4cc(Cl)c(Oc5ccn6ncnc6c5)c(Cl)c4)c3n2)CC1 [Example I-3]
(3) C=CC(=O)N1CCN(c2ncc3ncnc(Nc4ccc(Oc5ccn6ncnc6c5)c(C)c4)c3n2)CC1 [Example I-1]
(4) C=CC(=O)N1CCN(c2ncc3ncnc(Nc4ccc(Oc5ccn6ncnc6c5)c(C)c4)c3n2)C[C@H]1C [Example I-6]
(5) C=CC(=O)N1CCN(c2ncc3ncnc(Nc4ccc(Oc5ccn6ncnc6c5)c(C)c4)c3n2)[C@H](C)C1 [Example I-7]
Problem: # rank_down: sort by IC50, max first Your reply should list the labels following the order given in the request.
Solution: 5, 1, 2, 4, 3

###

# target_system: HER2 YVMA (Homo sapiens, UniProt P04626, INS775YVMA)
# Construct: expressed in transfected cells; host or cells: human HEK cells, retroviral transduction, doxycycline-inducible expression
# method_description: pHER2 (ERBB2) YVMA assay (AlphaScreen Surefire, HEK cells)
# Type: cell-based
# measurement_parameters: prior art compounds (Table 13); HEK cells expressing HER2 YVMA, Tyr1221/1222, 4 h
measurement_label: IC50 (µM)
Number in µM, nothing else.

Value of measured IC50 for the entry C=CC(=O)Nc1ccc2ncnc(Nc3ccc(Oc4ccn5ncnc5c4)c(C)c3)c2c1 [WO 2007/059257 Ex. 169, reference compound] : 0.081

###

# Tested on: Ba/F3 cells HER2 WT
# method_description: Ba/F3 proliferation assay, HER2 WT
# Format: cell-based
# measurement_parameters: Mus musculus, BaF3; 72 h, CellTiter-Glo
measurement_label: GI50 (nM)

Consider the following illustrative entries.
{"columns": ["compound", "measurement_label", "unit_spec", "measured_number"],
 "data": [
  ["C=CC(=O)N1CCN(c2ncc3ncnc(Nc4ccc(Oc5ccn6ncnc6c5)c(C)c4)c3n2)[C@@H](C)C1 [Example I-8]", "GI50", "nM", 3],
  ["C=CC(=O)N1CCN(c2ncc3ncnc(Nc4ccc(Oc5ccn6ncnc6c5)c(Cl)c4)c3n2)CC1 [Example I-2]", "GI50", "nM", 1]
]}

(P) C=CC(=O)N1CCN(c2ncc3ncnc(Nc4ccc(Oc5ccn6ncnc6c5)c(C)c4)c3n2)CC1 [Example I-1]
(Q) C=CC(=O)N1CCN(c2ncc3ncnc(Nc4cc(Cl)c(Oc5ccn6ncnc6c5)c(Cl)c4)c3n2)CC1 [Example I-3]
Problem: Which entry has a larger number for GI50, P or Q ? Your answer should be the label attached to the chosen record.
Solution: Q
